All values here come from ChEMBL document CHEMBL1909609.

# Test system: Huh-7
# Test Method Notes: Cytotoxicity against human HuH7 cells assessed as rRNA level at 10 uM
# Type: cell-based
# Experimental Parameters: huh-7, 10 µM

{"Structure As Smiles": "C[C@@]1(O)[C@H](O)[C@@H](CO)O[C@H]1n1cnc2c(N)nc(-n3ccnn3)nc21", "Unit Annotation": "%", "Activity": 0}
{"Structure As Smiles": "C[C@@]1(O)[C@H](O)[C@@H](CO)O[C@H]1n1cnc2c(N)nc(NN)nc21", "Unit Annotation": "%", "Activity": 7}
{"Structure As Smiles": "C[C@@]1(O)[C@H](O)[C@@H](CO)O[C@H]1n1cnc2c1nc(N)n1nc(-c3ccco3)nc21", "Unit Annotation": "%", "Activity": 0}
{"Structure As Smiles": "C[C@@]1(OC(=O)c2ccccc2)[C@H](OC(=O)c2ccccc2)[C@@H](COC(=O)c2ccccc2)O[C@H]1n1cnc2c(Cl)nc(NO)nc21", "Unit Annotation": "%", "Activity": 100}
{"Structure As Smiles": "C[C@@]1(O)[C@H](O)[C@@H](CO)O[C@H]1n1cnc2c(=N)n(N)[nH]c(=O)c21", "Unit Annotation": "%", "Activity": 0}
{"Structure As Smiles": "C[C@@]1(O)[C@H](O)[C@@H](CO)O[C@H]1n1cnc2c(N)nc(-n3cc([Si](C)(C)C)nn3)nc21", "Unit Annotation": "%", "Activity": 0}
{"Structure As Smiles": "C[C@@]1(O)[C@H](O)[C@@H](CO)O[C@H]1n1cnc2c(N)nc(N=[N+]=[N-])nc21", "Unit Annotation": "%", "Activity": 0}
{"Structure As Smiles": "C[C@@]1(OC(=O)c2ccccc2)[C@H](OC(=O)c2ccccc2)[C@@H](COC(=O)c2ccccc2)O[C@H]1n1cnc2c(N)nc(NO)nc21", "Unit Annotation": "%", "Activity": 76}
